System: LNCaP cells
Assay: MTT assay (cytotoxicity), LNCaP cells
Type: cell-based
Conditions: 72 h, Table 2.2
READOUT LABEL: IC50 (µM)
# value in µM; strip the unit string

Form: molecule = O=C(N/C=C/c1cccc(F)c1)Nc1ccc([N+](=O)[O-])c(C(F)(F)F)c1 ; IC50 = 18.8

Form: molecule = N#Cc1ccc(NC(=O)N/C=C/c2ccccc2C(F)(F)F)cc1 ; IC50 = 3.4

Form: molecule = O=C(N/C=C/c1cccc(F)c1)Nc1cccc(C(F)(F)F)c1 ; IC50 = 3.8

###

Test: MTT assay (cytotoxicity), DU145 cells
Format: cell-based
Details: human, DU145 cells, Table 4.1
READOUT LABEL: IC50 at 72 h (µM)
# value in µM; strip the unit string

Form: compound = O=C(Nc1ccc(Br)nc1)Nc1cc(C(F)(F)F)cc(C(F)(F)F)c1 ; IC50 at 72 h = 1.7

Form: compound = O=C(Nc1cc(C(F)(F)F)cc(C(F)(F)F)c1)Nc1ccc2[nH]ccc2c1 ; IC50 at 72 h = 8.3

Form: compound = O=C(Nc1cc(C(F)(F)F)cc(C(F)(F)F)c1)Nc1ccncn1 ; IC50 at 72 h = 2.4

###

Assay: MTT assay (cytotoxicity), LNCaP cells
Type: cell-based
Conditions: human, LNCaP cells, 72 h, Table 5.1
For each of the molecules below, state its IC50 at 72 h.
# value in µM; strip the unit string

Form: molecule = O=C(N/C=C/c1cc(C(F)(F)F)cc(C(F)(F)F)c1)Nc1ccn(C(=O)N/C=C/c2cc(C(F)(F)F)cc(C(F)(F)F)c2)c(=O)n1 ; IC50 at 72 h = 2.4

Form: molecule = O=C(N/C=C/c1cccc(C(F)(F)F)c1)Nc1cccc(NC(=O)N/C=C/c2cccc(C(F)(F)F)c2)c1 ; IC50 at 72 h = 1.7

Form: molecule = O=C(N/C=C/c1cccc(C(F)(F)F)c1)Nc1ccccc1NC(=O)N/C=C/c1cccc(C(F)(F)F)c1 ; IC50 at 72 h = 2.4

###

Test system: LNCaP cells
Experiment: MTT assay (cytotoxicity), LNCaP cells
Format: cell-based
Conditions: 72 h, Table 2.2
READOUT LABEL: IC50 (µM)
# value in µM; strip the unit string

Form: compound = O=C(N/C=C/c1cccc(C(F)(F)F)c1)Nc1cccc(C(F)(F)F)c1 ; IC50 = 12.3

Form: compound = O=C(N/C=C/c1ccc(C(F)(F)F)cc1)Nc1ccc([N+](=O)[O-])c(C(F)(F)F)c1 ; IC50 = 9.6

Form: compound = N#Cc1ccc(NC(=O)N/C=C/c2cccc(F)c2)cc1C(F)(F)F ; IC50 = 1.9

Form: compound = O=C(N/C=C/c1ccccc1C(F)(F)F)Nc1cccc(C(F)(F)F)c1 ; IC50 = 14.4

Form: compound = Nc1ccc(NC(=O)N/C=C/c2ccc(C(F)(F)F)cc2)cc1 ; IC50 = 3.5

Form: compound = O=C(N/C=C/c1cc(C(F)(F)F)cc(C(F)(F)F)c1)Nc1ccc([N+](=O)[O-])c(C(F)(F)F)c1 ; IC50 = 0.5

Form: compound = N#Cc1ccc(NC(=O)N/C=C/c2ccc(C(F)(F)F)cc2)cc1C(F)(F)F ; IC50 = 1.4

###

Tested on: DU145 cells
Experiment: MTT assay (cytotoxicity), DU145 cells
Assay type: cell-based
Conditions: DU145 cells, 72 h, Table 4.2
For each of the molecules below, state its IC50.

Form: molecule = N#Cc1ccc(NC(=O)Nc2cc(C(F)(F)F)cc(C(F)(F)F)c2)cc1C(F)(F)F ; IC50 = 1.5 µM

Form: molecule = N#Cc1ccc(NC(=O)Nc2ccc([N+](=O)[O-])c(C(F)(F)F)c2)cc1C(F)(F)F ; IC50 = 5.3 µM

Form: molecule = N#Cc1ccc(NC(=O)Nc2cccc(C(F)(F)F)c2)cc1Cl ; IC50 = 5.1 µM

Form: molecule = N#Cc1ccc(NC(=O)Nc2ccc(C(F)(F)F)cc2)cc1C(F)(F)F ; IC50 = 5.4 µM

Form: molecule = N#Cc1ccc(NC(=O)Nc2cccc(C(F)(F)F)c2)cc1C(F)(F)F ; IC50 = 1.6 µM

Form: molecule = N#Cc1ccc(NC(=O)Nc2cc(C(F)(F)F)cc(C(F)(F)F)c2)cc1Cl ; IC50 = 1.3 µM

Form: molecule = N#Cc1ccc(NC(=O)Nc2ccc(C(F)(F)F)cc2)cc1Cl ; IC50 = 4.1 µM

Form: molecule = O=C(Nc1cccc(C(F)(F)F)c1)Nc1ccc([N+](=O)[O-])c(C(F)(F)F)c1 ; IC50 = 1.5 µM

###

Assay: MTT assay (cytotoxicity), DU145 cells
Type: cell-based
Conditions: human, DU145 cells, Table 2.5
READOUT LABEL: IC50 at 72 h (µM)
# value in µM; strip the unit string

Form: molecule = CC/C=C(\C)CN(C(=O)N/C=C/c1cc(C(F)(F)F)cc(C(F)(F)F)c1)c1ccc(C#N)nc1 ; IC50 at 72 h = 7.1

###

Target: AR-v7 (Homo sapiens, UniProt P10275)
Sequence (P10275 1-644 isoform P10275-3): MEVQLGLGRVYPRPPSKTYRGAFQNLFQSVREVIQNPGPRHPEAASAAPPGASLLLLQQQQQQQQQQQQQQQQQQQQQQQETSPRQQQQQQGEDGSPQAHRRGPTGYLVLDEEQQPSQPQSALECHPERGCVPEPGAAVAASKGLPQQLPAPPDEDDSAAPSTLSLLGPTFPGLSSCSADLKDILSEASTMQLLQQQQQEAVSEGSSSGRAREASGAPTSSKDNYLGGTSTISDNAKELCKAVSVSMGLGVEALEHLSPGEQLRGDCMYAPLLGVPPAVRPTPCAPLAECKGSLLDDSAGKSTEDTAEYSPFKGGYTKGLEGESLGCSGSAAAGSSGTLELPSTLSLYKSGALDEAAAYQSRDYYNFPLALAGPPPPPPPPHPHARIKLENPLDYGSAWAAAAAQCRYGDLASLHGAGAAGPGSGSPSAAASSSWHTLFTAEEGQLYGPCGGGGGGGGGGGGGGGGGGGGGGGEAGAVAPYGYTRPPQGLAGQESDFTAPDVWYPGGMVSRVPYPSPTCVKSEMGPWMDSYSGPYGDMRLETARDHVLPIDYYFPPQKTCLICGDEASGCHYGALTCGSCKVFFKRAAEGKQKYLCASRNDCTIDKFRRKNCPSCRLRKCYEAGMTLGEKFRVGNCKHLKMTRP
Assay: AR-v7-dependent PSA-luc reporter assay in HEK293 cells
Conditions: 24 h
READOUT LABEL: inhibition of constitutive activation of AR-v7 (PSA-luc)

Some solved cases for reference:
CHEMICAL SMILES | SYSTEM TESTED | RESULT
O=C(Nc1cccc(C(F)(F)F)c1)Nc1ccc(NC(=O)c2ccccc2F)c(C(F)(F)F)c1 | AR-v7 (Homo sapiens, UniProt P10275) | dose-dependently inhibit
O=C(N/C=C/c1cccc(C(F)(F)F)c1)Nc1ccncn1 | AR-v7 (Homo sapiens, UniProt P10275) | dose-dependently inhibit
N#Cc1ccc(NC(=O)Nc2cccc(C(F)(F)F)c2)cc1C(F)(F)F | AR-v7 (Homo sapiens, UniProt P10275) | inhibited
O=C(Nc1cccc(C(F)(F)F)c1)Nc1ccc([N+](=O)[O-])c(C(F)(F)F)c1 | AR-v7 (Homo sapiens, UniProt P10275) | inhibited

Next molecule, inhibition of constitutive activation of AR-v7 (PSA-luc) to be filled in.
Reported inhibition of constitutive activation of AR-v7 (PSA-luc) (AR-v7 (Homo sapiens, UniProt P10275)) for entry N#Cc1ccc(NC(=O)Nc2cccc(C(F)(F)F)c2)cc1Cl is inhibited

###

For each of the molecules below, state its IC50.
Tested on: 22Rv1 cells
Experiment: MTT assay (cytotoxicity), 22Rv1 cells
Type: cell-based
Settings: 72 h, Table 2.1
# value in µM; strip the unit string

Form: molecule = O=C(N/C=C/c1cc(C(F)(F)F)cc(C(F)(F)F)c1)Nc1ncccc1Br [Compound 527] ; IC50 = 7.6

Form: molecule = O=C(N/C=C/c1cccc(C(F)(F)F)c1)Nc1cnccn1 [Compound 558] ; IC50 = 0.1

Form: molecule = O=C(N/C=C/c1cc(C(F)(F)F)cc(C(F)(F)F)c1)Nc1cncc(F)c1 [Compound 535] ; IC50 = 3.1

Form: molecule = N#Cc1ccc(NC(=O)N/C=C/c2cc(C(F)(F)F)ccc2C(F)(F)F)cn1 [Compound 480] ; IC50 = 1.8

###

Tested on: LNCaP cells
Assay: MTT assay (cytotoxicity), LNCaP cells
Format: cell-based
Settings: LNCaP cells, 72 h, Table 4.2
Criterion: IC50 strictly less than 0.8 µM. Met: TRUE. Not met: FALSE.

Input line: Is IC50 strictly under 0.8 µM for the entry N#Cc1ccc(NC(=O)Nc2cccc(C(F)(F)F)c2)cc1C(F)(F)F [Compound 467] ?
Output line: FALSE

Input line: Is IC50 strictly under 0.8 µM for the entry O=C(Nc1cccc(C(F)(F)F)c1)Nc1ccc([N+](=O)[O-])c(C(F)(F)F)c1 [Compound 442] ?
Output line: TRUE

Input line: Is IC50 strictly under 0.8 µM for the entry N#Cc1ccc(NC(=O)Nc2cc(C(F)(F)F)cc(C(F)(F)F)c2)cc1C(F)(F)F [Compound 494] ?
Output line: TRUE

Input line: Is IC50 strictly under 0.8 µM for the entry N#Cc1ccc(NC(=O)Nc2ccc(C(F)(F)F)cc2)cc1Cl [Compound 502] ?
Output line: FALSE

Input line: Is IC50 strictly under 0.8 µM for the entry N#Cc1ccc(NC(=O)Nc2cc(C(F)(F)F)cc(C(F)(F)F)c2)cc1Cl [Compound 500] ?
Output line: TRUE

Input line: Is IC50 strictly under 0.8 µM for the entry N#Cc1ccc(NC(=O)Nc2ccc([N+](=O)[O-])c(C(F)(F)F)c2)cc1C(F)(F)F [Compound 465] ?
Output line: FALSE

Input line: Is IC50 strictly under 0.8 µM for the entry N#Cc1ccc(NC(=O)Nc2ccc(C(F)(F)F)cc2)cc1C(F)(F)F [Compound 509] ?
Output line: TRUE

Where do the numbers come from? From patent US20170273922A1.
